Data origin, for the record: patent US20260098017A1

# test.target: JAK3 JH1 kinase (Homo sapiens, UniProt P52333)
# Sequence (P52333 822-1111 limits assumed): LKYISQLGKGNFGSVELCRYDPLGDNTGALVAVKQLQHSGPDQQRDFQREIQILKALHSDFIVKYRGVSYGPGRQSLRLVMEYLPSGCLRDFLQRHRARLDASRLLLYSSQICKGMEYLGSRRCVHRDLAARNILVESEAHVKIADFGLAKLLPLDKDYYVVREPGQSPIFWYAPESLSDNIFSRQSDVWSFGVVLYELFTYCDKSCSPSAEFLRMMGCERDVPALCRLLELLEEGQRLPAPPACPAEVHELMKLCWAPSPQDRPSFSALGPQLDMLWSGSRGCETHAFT
# run.description: JAK3 JH1 enzyme assay in vitro (TR-FRET)
# Assay type: biochemical
readout: IC50

Query: Entry [2H]C([2H])([2H])NC(=O)c1nnc(NC(=O)C2CC2)cc1Nc1cccc(-c2ncn(C)n2)c1OC([2H])([2H])[2H] [BMS-986165, reference compound] : reported IC50 = ?
Response: > 10 µM

----------
# test.target: Ba/F3 cell line expressing TYK2 (Homo sapiens, UniProt P29597, cells depend on it, form not given)
# run.description: In vitro cellular inhibition assay (Ba/F3 cell proliferation, CellTiter-Glo)
# Format: cell-based
# condition.set: read-out: IC50 (the source's name)
readout: GI50

{"compound": "[2H]C([2H])([2H])NC(=O)c1nnc(NC(=O)C2CC2)cc1Nc1cccc(C(=O)Nc2cn(C)cn2)c1OC [Example 35]", "GI50": "5 to 10 nM"}
{"compound": "[2H]C([2H])([2H])NC(=O)c1cnc(NC(=O)C2CC2)cc1Nc1cccc(C(=O)Nc2cccc(C)c2)c1OC [Example 55]", "GI50": "1 to 5 nM"}
{"compound": "[2H]C([2H])([2H])NC(=O)c1nnc(NC(=O)C2CC2)cc1Nc1cccc(C(=O)Nc2ccc(C)c(C)c2)c1OC [Example 4]", "GI50": "1 to 5 nM"}

Query: Entry [2H]C([2H])([2H])NC(=O)c1nnc(NC(=O)C2CC2)cc1Nc1cccc(C(=O)Nc2cc(C)ccn2)c1OC [Example 37] : reported GI50 = ?
Response: 5 to 10 nM

----------
# test.target: JAK1 JH2 pseudokinase (Homo sapiens)
# Sequence (P23458 583-855 limits assumed): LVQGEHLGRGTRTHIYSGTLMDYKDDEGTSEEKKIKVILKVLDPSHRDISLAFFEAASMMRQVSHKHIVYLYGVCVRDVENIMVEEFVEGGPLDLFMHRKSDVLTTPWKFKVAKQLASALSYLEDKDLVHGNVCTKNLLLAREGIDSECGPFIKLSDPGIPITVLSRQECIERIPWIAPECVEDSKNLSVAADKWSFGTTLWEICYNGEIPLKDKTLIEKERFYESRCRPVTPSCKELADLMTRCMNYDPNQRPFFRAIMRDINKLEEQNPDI
# run.description: JAK1 JH2 enzyme binding assay in vitro (TR-FRET)
# condition.set: read-out: JAK 1 JH2 IC50
Catalogue of IC50 readings, one per entry.
Enter your answer as a number in nM; do not include the unit.

Some solved entries appear below for comparison.
{"compound": "[2H]C([2H])([2H])NC(=O)c1nnc(NC(=O)C2CC2)cc1Nc1cccc(C(=O)Nc2cncc(C)c2)c1OC [Example 38]", "test.target": "JAK1 JH2 pseudokinase (Homo sapiens)", "readout": "IC50", "value.unit": "nM", "result.value": 2.35}
{"compound": "[2H]C([2H])([2H])NC(=O)c1cnc(NC(=O)C2CC2)cc1Nc1cccc(C(=O)Nc2ccc(C)cc2)c1OC [Example 54]", "test.target": "JAK1 JH2 pseudokinase (Homo sapiens)", "readout": "IC50", "value.unit": "nM", "result.value": 4.56}
{"compound": "[2H]C([2H])([2H])NC(=O)c1cnc(NC(=O)C2CC2)cc1Nc1cccc(C(=O)Nc2cnn(C)c2)c1OC [Example 86]", "test.target": "JAK1 JH2 pseudokinase (Homo sapiens)", "readout": "IC50", "value.unit": "nM", "result.value": 17.6}
{"compound": "[2H]C([2H])([2H])NC(=O)c1nnc(NC(=O)C2CC2)cc1Nc1cccc(C(=O)Nc2ccc(C)c(C)c2)c1OC [Example 4]", "test.target": "JAK1 JH2 pseudokinase (Homo sapiens)", "readout": "IC50", "value.unit": "nM", "result.value": 5.33}
{"compound": "[2H]C([2H])([2H])NC(=O)c1cnc(NC(=O)C2CC2)cc1Nc1cccc(C(=O)Nc2cccc(C)c2)c1OC [Example 55]", "test.target": "JAK1 JH2 pseudokinase (Homo sapiens)", "readout": "IC50", "value.unit": "nM", "result.value": 3.3}
{"compound": "[2H]C([2H])([2H])NC(=O)c1nnc(NC(=O)C2CC2)cc1Nc1cccc(C(=O)Nc2cnn(C)c2)c1OC [Example 34]", "test.target": "JAK1 JH2 pseudokinase (Homo sapiens)", "readout": "IC50", "value.unit": "nM", "result.value": 4.16}
{"compound": "[2H]C([2H])([2H])NC(=O)c1nnc(NC(=O)C2CC2)cc1Nc1cccc(C(=O)Nc2ccc(C)cc2)c1OC [Example 2]", "test.target": "JAK1 JH2 pseudokinase (Homo sapiens)", "readout": "IC50", "value.unit": "nM", "result.value": 6.56}
{"compound": "[2H]C([2H])([2H])NC(=O)c1nnc(NC(=O)C2CC2)cc1Nc1cccc(C(=O)Nc2cccc(C)c2)c1OC [Example 3]", "test.target": "JAK1 JH2 pseudokinase (Homo sapiens)", "readout": "IC50", "value.unit": "nM", "result.value": 9.74}

Now take the following compound into account.
Query: Short answer please: IC50, JAK1 JH2 pseudokinase (Homo sapiens), entry [2H]C([2H])([2H])NC(=O)c1cnc(NC(=O)C2CC2)cc1Nc1cccc(C(=O)Nc2ccc(C)c(C)c2)c1OC [Example 62]
Response: 14.3

----------
# test.target: TYK2 JH2 pseudokinase (Homo sapiens)
# run.description: TYK2 JH2 enzyme binding assay in vitro (TR-FRET)
Could you please mark Criterion met for values of IC50 below 300 pM and Criterion not met for values at or above it?

Look over these answered cases.
{"chemical.string": "[2H]C([2H])([2H])NC(=O)c1nnc(NC(=O)C2CC2)cc1Nc1cccc(C(=O)Nc2cncc(C)c2)c1OC", "group": "Criterion not met"}
{"chemical.string": "[2H]C([2H])([2H])NC(=O)c1cnc(NC(=O)C2CC2)cc1Nc1cccc(C(=O)Nc2ccc(F)cc2)c1OC", "group": "Criterion met"}
{"chemical.string": "[2H]C([2H])([2H])NC(=O)c1cnc(NC(=O)C2CC2)cc1Nc1cccc(C(=O)Nc2cncc(C)c2)c1OC", "group": "Criterion not met"}

Here is another molecule to look at.
Query: Hello, is IC50 of the following molecule strictly smaller than 300 pM? [2H]C([2H])([2H])NC(=O)c1nnc(NC(=O)C2CC2)cc1Nc1cccc(C(=O)Nc2cnn(C)c2)c1OC
Response: Criterion not met

----------
Catalogue of pIC50 readings, one per entry.
# test.target: TYK2 JH2 pseudokinase (Homo sapiens, UniProt P29597)
# Sequence (P29597 589-875 limits assumed): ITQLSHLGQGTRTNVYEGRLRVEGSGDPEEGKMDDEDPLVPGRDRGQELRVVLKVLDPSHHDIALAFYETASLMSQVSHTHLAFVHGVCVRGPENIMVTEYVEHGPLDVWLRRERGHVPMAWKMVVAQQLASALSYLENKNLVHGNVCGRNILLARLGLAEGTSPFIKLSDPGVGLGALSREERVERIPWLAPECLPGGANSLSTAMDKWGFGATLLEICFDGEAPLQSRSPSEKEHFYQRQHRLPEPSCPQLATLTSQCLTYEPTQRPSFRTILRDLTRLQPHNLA
# run.description: TYK2 JH2 enzyme binding assay in vitro (TR-FRET)
API: returns pIC50 as number; meaning -log10 of concentration in mol/L.

{"chemical.string": "[2H]C([2H])([2H])NC(=O)c1nnc(NC(=O)C2CC2)cc1Nc1cccc(C(=O)Nc2cccc(C)c2)c1OC", "result.value": 9.56}
{"chemical.string": "[2H]C([2H])([2H])NC(=O)c1nnc(NC(=O)C2CC2)cc1Nc1cccc(C(=O)Nc2ccc(C)cc2)c1OC", "result.value": 9.51}
{"chemical.string": "[2H]C([2H])([2H])NC(=O)c1nnc(NC(=O)C2CC2)cc1Nc1cccc(C(=O)Nc2ccc(F)cc2)c1OC", "result.value": 9.55}
{"chemical.string": "[2H]C([2H])([2H])NC(=O)c1cnc(NC(=O)C2CC2)cc1Nc1cccc(C(=O)Nc2cnn(C)c2)c1OC", "result.value": 9.52}

Now take the following compound into account.
Query: Entry [2H]C([2H])([2H])NC(=O)c1cnc(NC(=O)C2CC2)cc1Nc1cccc(C(=O)Nc2ccc(C)c(C)c2)c1OC : reported pIC50 = ?
Response: 9.56

----------
Catalogue of GI50 readings, one per entry.
# test.target: Ba/F3 cell line expressing TYK2 (Homo sapiens, UniProt P29597, cells depend on it, form not given)
# run.description: In vitro cellular inhibition assay (Ba/F3 cell proliferation, CellTiter-Glo)
# Format: cell-based
# condition.set: read-out: IC50 (the source's name)
# Experimental: The inhibitory effect of the compounds of formula (I) according to the present invention on the TYK2 signaling pathway in cells was assessed using the following method: Instrumentation: SpectraMax Paradigm reader. […] Procedure: a CellTiter-Glo buffer was thawed and placed aside till room temperature. […] Finally, the luminescence signal was measured on the SpectraMax Paradigm reader. […]

Some solved entries appear below for comparison.
{"chemical.string": "[2H]C([2H])([2H])NC(=O)c1cnc(NC(=O)C2CC2)cc1Nc1cccc(C(=O)Nc2ccc(F)c(C)c2)c1OC", "GI50": "5 to 10 nM"}
{"chemical.string": "[2H]C([2H])([2H])NC(=O)c1cnc(NC(=O)C2CC2)cc1Nc1cccc(C(=O)Nc2ccc(F)cc2)c1OC", "GI50": "1 to 5 nM"}
{"chemical.string": "[2H]C([2H])([2H])NC(=O)c1nnc(NC(=O)C2CC2)cc1Nc1cccc(C(=O)Nc2ccc(C(F)(F)F)c(C)c2)c1OC", "GI50": "5 to 10 nM"}
{"chemical.string": "[2H]C([2H])([2H])NC(=O)c1cnc(NC(=O)C2CC2)cc1Nc1cccc(C(=O)Nc2ccc(C(C)C)cc2)c1OC", "GI50": "5 to 10 nM"}

Query: Entry [2H]C([2H])([2H])NC(=O)c1nnc(NC(=O)C2CC2)cc1Nc1cccc(C(=O)Nc2cnn(C)c2)c1OC : reported GI50 = ?
Response: 1 to 5 nM
